System: RXF 393
Test: NCI tumour cell line growth inhibition, 48 h
Activity calls are given as the source filed them. Cut-off read from the data, not from the text of the source: active = GI50 up to about 1.1 µM and inactive = higher. Starred links: 1 amine or outer side, 2 acyl side, 3 side chain; linkers in the order of their positions; H or OH if unused. Positions of bridges follow the written chain, without caps; N, C: chain ends. Non-standard residues stand in square brackets, D forms with d. Residues, ends and D or L forms follow the SMILES beside them. ξ: configuration not given here. X37 = CC[C@H](C)[C@@H](N[*:1])[C@@H](O)CC(=O)O[C@H](C(=O)[C@H](C)C(=O)[*:2])C(C)C; NMeY = CN[C@@H](Cc1ccc(O)cc1)C(=O)O; dNMeL = CN[C@H](CC(C)C)C(=O)O; ξΔPro = O=C(O)C1C=CCN1
Classes used: 1 (active), 0 (inactive)

compound	class-label
O=C(OCCCl)C1OC(n2cc(F)c(=O)[nH]c2=O)CC1O (stereo not given)	0
NC(CSCc1ccccc1)C(=O)O (stereo not given)	0
COc1cc2ccnc3c2c(c1OC)-c1coc(SC)c1-3	0
Cc1ccc(C)c(NC(=O)CC2C(=O)Nc3ccccc3S2(=O)=O)c1 (stereo not given)	0
COC(=O)/C=C(/OC)[C@H](C)[C@H](/C=C/c1csc(-c2csc(C(C)C)n2)n1)OC	0
CCOP(=O)(OCC)/C(C#N)=C/c1c(C)[nH]c2ccccc12	0
CCOC(=O)Oc1ccc2c(c1)c(=O)c1c(NCCCN(CC)CC)ccc3nnn2c31	0
COC(=O)C(=O)C(C(=O)C(=O)Nc1nnc(S)[nH]1)c1nc2ccc([N+](=O)[O-])cc2nc1O (stereo not given)	0
C=CC[C@H](C[C@H](C[C@H](C[C@H](C[C@H](C[C@H](C[C@H](C[C@H](C[C@H](C[C@H](CCCCC)OC)OC)OC)OC)OC)OC)OC)OC)OC)OC	0
O=c1[nH]n(Cc2ccccc2Cl)c2ccccc12	0
Cc1c(C#N)c(=O)[nH]c(=O)n1CCN1CCN(C(=O)NCCCCCCNC(=O)N2CCN(CCn3c(C)c(C#N)c(=O)[nH]c3=O)CC2)CC1	0
C[Si](C)(C)/N=C1\N2C(=NC1(C(F)(F)F)C(F)(F)F)Sc1ccccc12	0
CO/N=C1/c2sccc2[C@H](NC(=O)C(Cc2ccccc2)NC(=O)OC(C)(C)C)[C@@H]1O (stereo not given in full)	0
NC(=O)c1ncn(C2CCC(CP(=O)(O)O)C2)c1N (stereo not given)	0
Cc1c(F)c(N)c2c(=O)cc(-c3ccc(NC(=O)CN(C)C)c(F)c3)oc2c1F	0
CC1=Nc2ccccc2C1C(Cc1ccccc1N)c1c(C)[nH]c2ccccc12 (stereo not given)	0
CC1(C)OC2COC(c3n[nH]c4c(=O)[nH]c(=O)[nH]c34)C2O1 (stereo not given)	0
NCCCn1c(Cl)nc2ccccc21	0
O=S(=O)(CCCCl)SCCCCl	0
CCN(CC)CCCC(C)Nc1ccnc2cc3ccccc3cc12 (stereo not given)	0
O=C(/C=C/c1ccc(O)c(O)c1)NC(CO)C(=O)O (stereo not given)	0
C(=C(c1ccc(OC2CCCCO2)cc1)c1ccc(OC2CCCCO2)cc1)c1ccccc1 (stereo not given)	1
Cc1ccc(NCC(=O)N2CC(=O)Nc3ccccc32)cc1	0
COc1ccc(/C=C/C(=O)c2cc(C(C)(C)C)c(O)c(C(C)(C)C)c2)cc1OC	0
CC(=O)OCc1cc(OC(C)=O)cnc1COC(C)=O	0
CC12CCC(C(=O)O1)C(C)(C)O2 (stereo not given)	0
O=c1[nH]c(=O)n(C2CC(O)C(CO)O2)c2nc3ccc4ccccc4c3nc12 (stereo not given)	0
CC[C@H](C)[C@H]1NC(=O)[C@@H](NC(=O)[C@@H](CC(C)C)N(C)C(=O)C2C=CCN2)[C@@H](C)OC(=O)[C@H](Cc2ccc(OC)cc2)N(C)C(=O)[C@@H]2CCCN2C(=O)[C@H](CC(C)C)NC(=O)[C@@H](C)C(=O)[C@H](C(C)C)OC(=O)C[C@@H]1O (stereo not given in full) (H-[ξΔPro][dNMeL]T[X37]LP[NMeY](Me); ester 3-C)	1
CCCCCCCCCCCCO[PH](=O)OCCCCCCCCCCCC	0
COc1ccc(C[C@H](N)C(=O)NC2C(CO)OC(n3cnc4c(N(C)C)ncnc43)C2O)cc1 (stereo not given in full)	1
CC(=O)C(=O)NC1/C=C(C)\C=C/C(O)C/C=C(C)\C=C/C(O)CC2OC(=O)C1(C)C(=O)C2C (stereo not given)	0
O=C1/C(=C/c2ccc(C(=O)O)cc2)CNC/C1=C\c1ccc(C(=O)O)cc1	0
CSc1c(C(=O)Nc2ccc(Cl)cc2)c(N)nn1-c1ccccc1	0
Cc1cn(C2CC(O)C(COC(N)=O)O2)c(=O)[nH]c1=O (stereo not given)	0
Nc1nc2c(ncn2C2C=CC(COS(N)(=O)=O)C2)c(=O)[nH]1 (stereo not given)	0
CN1CCC2(CC1)/C(=N/C1CCCCC1)NC(=O)N2c1ccccc1	0
O=c1[nH]c(Br)nc2c(Br)c[nH]c12	0
O=C1C=C(NCCOCCO)C(=O)c2c(O)ccc(O)c21	0
CNNC1=NS(=O)(=O)c2cc(C#N)c(Cl)cc2S1	0
COc1ccc2c(c1)[n+]([O-])c1cc(C#N)ccc1[n+]2[O-]	0

Source: ChEMBL document CHEMBL1201862
